# TARGET SYSTEM: Human PI3K alpha (Homo sapiens)
# Construct: His (N); host or cells: SF9 insect cells (baculovirus)
# Sequence (P42336 whole entry): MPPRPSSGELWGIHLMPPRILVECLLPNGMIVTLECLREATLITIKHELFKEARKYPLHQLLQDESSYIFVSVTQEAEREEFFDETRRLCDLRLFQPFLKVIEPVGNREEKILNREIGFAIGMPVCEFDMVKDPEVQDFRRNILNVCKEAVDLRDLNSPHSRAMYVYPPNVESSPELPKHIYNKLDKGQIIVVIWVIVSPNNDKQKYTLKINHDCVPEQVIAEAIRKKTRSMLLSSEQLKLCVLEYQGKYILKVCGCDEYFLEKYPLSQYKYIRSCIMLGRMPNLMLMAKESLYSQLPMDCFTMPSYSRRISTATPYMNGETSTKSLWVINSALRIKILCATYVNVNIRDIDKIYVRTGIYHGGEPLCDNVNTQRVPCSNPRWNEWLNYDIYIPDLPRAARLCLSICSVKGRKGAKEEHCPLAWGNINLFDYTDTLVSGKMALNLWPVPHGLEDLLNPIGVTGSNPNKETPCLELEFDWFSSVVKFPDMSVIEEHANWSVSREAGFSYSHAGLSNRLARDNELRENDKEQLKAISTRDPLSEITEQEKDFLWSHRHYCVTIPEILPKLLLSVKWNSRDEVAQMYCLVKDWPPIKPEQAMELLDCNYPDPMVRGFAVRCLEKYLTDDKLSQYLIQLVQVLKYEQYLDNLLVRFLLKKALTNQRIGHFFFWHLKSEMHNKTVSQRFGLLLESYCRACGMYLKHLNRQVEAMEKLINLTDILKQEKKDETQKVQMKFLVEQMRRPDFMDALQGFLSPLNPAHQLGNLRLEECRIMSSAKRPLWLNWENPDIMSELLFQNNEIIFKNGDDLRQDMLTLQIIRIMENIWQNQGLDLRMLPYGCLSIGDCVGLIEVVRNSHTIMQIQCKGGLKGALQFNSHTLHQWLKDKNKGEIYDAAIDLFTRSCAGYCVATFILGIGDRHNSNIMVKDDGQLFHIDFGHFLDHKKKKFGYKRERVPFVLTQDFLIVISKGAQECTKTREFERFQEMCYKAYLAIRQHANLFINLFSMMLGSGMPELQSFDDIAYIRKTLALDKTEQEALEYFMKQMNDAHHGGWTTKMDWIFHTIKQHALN
# Sequence (P27986 whole entry partner): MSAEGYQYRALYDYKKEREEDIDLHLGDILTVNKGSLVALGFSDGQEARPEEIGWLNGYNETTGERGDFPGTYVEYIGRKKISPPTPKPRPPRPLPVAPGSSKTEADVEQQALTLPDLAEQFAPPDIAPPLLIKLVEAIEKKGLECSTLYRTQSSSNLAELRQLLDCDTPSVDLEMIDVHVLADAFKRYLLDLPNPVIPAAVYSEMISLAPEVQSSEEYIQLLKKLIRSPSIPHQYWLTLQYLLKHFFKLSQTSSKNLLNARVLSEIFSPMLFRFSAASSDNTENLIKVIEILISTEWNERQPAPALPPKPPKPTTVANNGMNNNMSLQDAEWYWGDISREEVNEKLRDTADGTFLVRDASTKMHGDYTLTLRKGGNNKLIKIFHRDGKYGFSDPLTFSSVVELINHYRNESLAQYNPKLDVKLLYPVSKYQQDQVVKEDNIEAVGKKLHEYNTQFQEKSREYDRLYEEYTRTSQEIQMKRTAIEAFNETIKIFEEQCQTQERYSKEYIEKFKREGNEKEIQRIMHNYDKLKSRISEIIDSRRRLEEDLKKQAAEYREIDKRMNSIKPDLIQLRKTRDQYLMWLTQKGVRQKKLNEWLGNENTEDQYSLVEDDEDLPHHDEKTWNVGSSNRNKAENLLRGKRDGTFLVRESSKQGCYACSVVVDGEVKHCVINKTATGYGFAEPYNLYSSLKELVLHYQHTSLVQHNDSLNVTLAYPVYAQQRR
# RUN DESCRIPTION: Human PI3K alpha enzyme assay (HTRF)
# Format: biochemical
# EXPERIMENTAL CONDITIONS: concentration not given; b1387 states 1.1 μM for PI3K α and β; read-out: p110 alpha Percent Inhibition
Below, each entry is listed alongside its reported inhibition at 1.1 µM.
Just the number please, in %, no unit attached.

Example entries begin here.
CC(=O)Nc1cc(-c2nc(Cc3ccc4ccccc4c3)c(C(=O)O)s2)ccn1 [Compound 177] :: 79
OC(c1ccc(C(F)(F)F)cc1)c1cc(-c2ccncc2)sc1-c1nnc[nH]1 (stereo not shown) [Compound 142] :: 15
CC(=O)Nc1cc(-c2sc(-c3nnc[nH]3)c(Sc3ccc(Cl)cc3)c2C#N)ccn1 [Compound 166] :: 92

Now examine the next entry.
Ask: Which inhibition at 1.1 µM value belongs to C=CCC(c1ccc(Cl)c(Cl)c1)c1c(C(=O)O)sc(N2CCOCC2)c1C#N (stereo not shown) [Compound 355] ?
Reply: 44

###

# TARGET SYSTEM: Human PI3K gamma (Homo sapiens, UniProt P48736)
# Construct: His (N); host or cells: SF9 insect cells (baculovirus)
# Sequence (P48736 whole entry): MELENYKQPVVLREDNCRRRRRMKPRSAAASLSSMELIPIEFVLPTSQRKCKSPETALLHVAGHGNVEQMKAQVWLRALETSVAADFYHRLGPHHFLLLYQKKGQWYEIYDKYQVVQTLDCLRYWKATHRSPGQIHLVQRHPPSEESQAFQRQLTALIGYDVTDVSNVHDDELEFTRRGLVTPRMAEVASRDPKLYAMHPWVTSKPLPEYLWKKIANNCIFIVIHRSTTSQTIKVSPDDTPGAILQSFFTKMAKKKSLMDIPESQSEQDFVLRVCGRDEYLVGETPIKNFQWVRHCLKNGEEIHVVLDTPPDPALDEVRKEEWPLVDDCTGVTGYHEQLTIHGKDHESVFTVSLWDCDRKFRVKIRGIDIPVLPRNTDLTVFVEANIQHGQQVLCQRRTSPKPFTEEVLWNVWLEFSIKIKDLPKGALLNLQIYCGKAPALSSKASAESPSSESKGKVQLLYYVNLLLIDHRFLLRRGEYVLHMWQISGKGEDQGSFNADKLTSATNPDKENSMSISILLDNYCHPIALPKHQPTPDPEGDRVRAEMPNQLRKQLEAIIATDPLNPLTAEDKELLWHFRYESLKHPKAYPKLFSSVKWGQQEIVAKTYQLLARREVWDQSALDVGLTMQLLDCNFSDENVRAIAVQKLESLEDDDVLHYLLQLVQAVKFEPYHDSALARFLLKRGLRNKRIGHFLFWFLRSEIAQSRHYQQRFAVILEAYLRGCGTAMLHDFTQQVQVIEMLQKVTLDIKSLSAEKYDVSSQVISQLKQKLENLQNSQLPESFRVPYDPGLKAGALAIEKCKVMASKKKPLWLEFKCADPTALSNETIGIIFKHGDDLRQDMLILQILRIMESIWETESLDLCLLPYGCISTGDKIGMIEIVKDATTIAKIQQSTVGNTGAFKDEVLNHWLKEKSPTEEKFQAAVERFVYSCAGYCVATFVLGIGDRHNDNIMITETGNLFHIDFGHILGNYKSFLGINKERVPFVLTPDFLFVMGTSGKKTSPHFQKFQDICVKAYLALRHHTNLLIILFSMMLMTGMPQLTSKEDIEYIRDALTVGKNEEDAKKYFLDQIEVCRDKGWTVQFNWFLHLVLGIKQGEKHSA
# RUN DESCRIPTION: Human PI3K gamma enzyme assay (HTRF)
# Type: biochemical
# EXPERIMENTAL CONDITIONS: concentration not given; b1389 states 1.0 μM for PI3K δ and γ; read-out: p110 gamma Percent Inhibition
Binary call on inhibition at 1 µM: t from 20% upward, f beneath that.

Ask: Evaluate O=C(O)c1sc(N2CCOCC2)nc1Cc1cc2ccccc2o1 : inhibition at 1 µM at minimum 20%?
Reply: t

Ask: Is inhibition at 1 µM for CC(=O)Nc1cc(-c2cc(C(c3ccc(Cl)cc3)N3CC(CCN)C3)c(-c3nnc[nH]3)s2)ccn1 (centres unmarked) at or above 20%?
Reply: t

Ask: Dear colleague, could you confirm whether OC(c1ccc2c(c1)OCO2)c1cc(-c2ccncc2)sc1-c1nnc[nH]1 (centres unmarked) has inhibition at 1 µM at or above 20%?
Reply: f

Ask: Answer whether inhibition at 1 µM of COc1ccc2cc(Cc3c(C(=O)O)sc(N4CCOCC4)c3C#N)ccc2c1 is greater than or equal to 20%.
Reply: t

Ask: Threshold query (inhibition at 1 µM >= 20%) on O=C(Nc1cc(-c2cc(C(c3ccc(Cl)cc3)N3CCNCC3)c(-c3nnc[nH]3)s2)ccn1)C1CC1 (centres unmarked)
Reply: t

Ask: Threshold query (inhibition at 1 µM >= 20%) on N#Cc1c(-c2ccnnc2)sc(-c2nnc[nH]2)c1C(O)c1ccc2ccccc2c1 (centres unmarked)
Reply: t

Ask: Does the molecule CC(=O)Nc1cc(-c2cc(C(O)(C3=CCOCC3)c3ccc(Cl)cc3)c(-c3nnc[nH]3)s2)ccn1 (centres unmarked) have recorded inhibition at 1 µM that is 20% or more?
Reply: f

Ask: Textbook exercise: given the entry CN(C)CCC(c1ccc(Cl)c(Cl)c1)c1c(C(=O)O)sc(N2CCOCC2)c1C#N (centres unmarked) , state whether its inhibition at 1 µM is greater than or equal to 20%.
Reply: t

###

# TARGET SYSTEM: Human PI3K alpha (Homo sapiens)
# Construct: His (N); host or cells: SF9 insect cells (baculovirus)
# RUN DESCRIPTION: Human PI3K alpha enzyme assay (HTRF)
# Assay type: biochemical
# EXPERIMENTAL CONDITIONS: concentration not given; b1387 states 1.1 μM for PI3K α and β; read-out: p110 alpha Percent Inhibition
Threshold check on inhibition at 1.1 µM: at or above 60% gives true (1), strictly below gives false (0).

CC(=O)Nc1cc(-c2cc(C(NCCO)c3ccc(Cl)cc3)c(-c3nnc[nH]3)s2)ccn1 (centres unmarked) [Compound 226] :: false (0)
NS(=O)(=O)c1sc(N2CCOCC2)nc1Cc1ccc2ccccc2c1 [Compound 329] :: false (0)
CC(=O)Nc1cc(-c2cc(C(c3ccc(Cl)cc3)N3CCN(S(C)(=O)=O)CC3)c(-c3nnc[nH]3)s2)ccn1 (centres unmarked) [Compound 224] :: true (1)
OC(c1cc(-c2ccncc2)sc1-c1nnc[nH]1)c1cccc(F)c1F (centres unmarked) [Compound 235] :: true (1)
N#Cc1c(N2CCOCC2)sc(C(=O)O)c1Cc1ccc2sccc2c1 [Compound 311] :: false (0)

Next compound, please.
Ask: Identify whether the reported inhibition at 1.1 µM of the following compound is 60% or greater: Nc1cc(-c2cc(C(c3ccc(Cl)cc3)N3CCNCC3)c(-c3nnc[nH]3)s2)ccn1 (centres unmarked) [Compound 254]
Reply: false (0)
